Assay: gradient 5% acetonitrile 3 min, to 50% in 2 min, to 85% in 15 min, held 3 min, 100 µL/min
Conditions: column: Zorbax Extend-C18 2.1 x 50 mm; eluents: water / acetonitrile, 0.1% formic acid
Classify by RP-LC retention time. Ranges: bottom end: < 700 s; midrange: ≥ 700 s and < 900 s; top end: ≥ 900 s

INSERT INTO assay_data (compound, assigned_label) VALUES
  ('O=C1CC(c2cccs2)Cc2nc(N3CCN(c4ccccn4)CC3)ncc21 (centres undefined)', 'bottom end'),
  ('O=C(c1ccco1)N1CC(Oc2ccc(-c3nc(-c4ccccc4)no3)cc2)C1', 'midrange'),
  ('Cc1cccc(NC(=O)Cn2c(C)nc(C)c(C)c2=O)c1C', 'bottom end'),
  ('CCCNC(=O)CCc1ccc2nc(-c3ccccc3)[nH]c2c1', 'bottom end'),
  ('Cc1ccc(-c2csc(-c3cccn3CC(=O)NCC3CCCO3)n2)cc1 (centres undefined)', 'top end');

Note: place this compound into its band. Item: "CCc1nn2c(N3CCN(c4cccc(C)n4)CC3)cc(C)nc2c1-c1ccccc1"
top end

Note: place this compound into its band. Item: "C=CCn1c(=O)c2ccccc2n(Cc2nc(-c3ccccc3Cl)no2)c1=O"
top end

Note: place this compound into its band. Item: Cc1nc2ccccc2c(=O)n1Cc1noc(C2CC(=O)N(c3ccccc3)C2)n1 (centres undefined)
midrange

Note: place this compound into its band. Item: CCc1ccc(CNC(=O)C2CCCN(c3nc4c(s3)c(C)nn4-c3ccc(C)cc3)C2)cc1 (centres undefined)
top end

Note: place this compound into its band. Item: "Cc1cccc2nnc(N3CCN(C(=O)c4ccncc4)CC3)n12"
bottom end

Note: place this compound into its band. Item: "Cc1cc(C)cc(-n2ccn3c(CCCC(=O)N4CCN(c5ccccn5)CC4)nnc3c2=O)c1"
bottom end

Note: place this compound into its band. Item: "CCn1cnc(S(=O)(=O)N2CCC(C(=O)NCCc3ccc(OC)c(OC)c3)CC2)c1"
bottom end

Note: place this compound into its band. Item: "O=C(CNC(=O)C1CCCCC1)Nc1ccc(S(=O)(=O)Nc2ccccc2Cl)cc1"
midrange

Note: place this compound into its band. Item: O=C(Cc1ccc(Cl)cc1)N1CCCN(C2CCN(CC3CC3)C2=O)CC1 (centres undefined)
bottom end

Note: place this compound into its band. Item: "O=C(NCc1ccc(F)cc1F)c1c(O)c2cccnc2n(Cc2ccccc2)c1=O"
top end

###

Listing: RP-LC retention time of selected compounds
Assay: gradient 5% acetonitrile 3 min, to 50% in 2 min, to 85% in 15 min, held 3 min, 100 µL/min
Details: column: Zorbax Extend-C18 2.1 x 50 mm; eluents: water / acetonitrile, 0.1% formic acid
Just the number please, in s, no unit attached.

Illustrative cases are given below, each with its answer.
INSERT INTO measurements (compound, output_unit, value) VALUES
  ('Cc1nn(-c2ccc(-c3ccccc3)nn2)c(C)c1S(=O)(=O)NCc1ccc(F)cc1', 's', 988),
  ('CCn1ccc2c(cc(C(=O)Nc3cc(OC)c(OC)c(OC)c3)n2C)c1=O', 's', 715);

Recall and state the measured RP-LC retention time for "Nc1cc(C2CCN(C(=O)Nc3ccc(Cl)cc3F)CC2)no1" .
717

Recall and state the measured RP-LC retention time for COc1ccc(CN(C(=O)c2oc3ccccc3c2C)C2CCS(=O)(=O)C2)cc1OC (centres undefined) .
826
